Measured values drawn from ChEMBL document CHEMBL1128144 for this set.

- target: Human immunodeficiency virus type 1 protease (Human immunodeficiency virus 1, UniProt Q72874)
// reported IC50 per item
Hi! Could you send only the number? It should be in nM, unit omitted.

Study these solved cases before continuing.
input_smiles=CC(C)(C)NC(=O)[C@@H]1C[C@@H]2CCCC[C@@H]2CN1C[C@@H](O)[C@H](Cc1ccccc1)NC(=O)[C@H]1CCSC1 property=IC50 unit_symbol=nM measured=650
input_smiles=CC(C)(C)NC(=O)[C@@H]1C[C@@H]2CCCC[C@@H]2CN1C[C@@H](O)[C@H](Cc1ccccc1)NC(=O)[C@H]1CCS(=O)(=O)C1 property=IC50 unit_symbol=nM measured=193
input_smiles=CC(C)(C)NC(=O)[C@@H]1C[C@@H]2CCCC[C@@H]2CN1C[C@@H](O)[C@H](Cc1ccccc1)NC(=O)[C@H]1CCCSC1 property=IC50 unit_symbol=nM measured=98.8
input_smiles=CC(C)(C)NC(=O)[C@@H]1C[C@@H]2CCCC[C@@H]2CN1C[C@@H](O)[C@H](Cc1ccccc1)NC(=O)C1=CCCS(=O)(=O)C1 property=IC50 unit_symbol=nM measured=54.7
input_smiles=CC(C)(C)NC(=O)[C@@H]1C[C@@H]2CCCC[C@@H]2CN1C[C@@H](O)[C@H](Cc1ccccc1)NC(=O)[C@@H]1CCCSC1 property=IC50 unit_symbol=nM measured=78.4

Given the entry CC(C)(C)NC(=O)[C@@H]1C[C@@H]2CCCC[C@@H]2CN1C[C@@H](O)[C@H](Cc1ccccc1)NC(=O)[C@H]1CCCS(=O)(=O)C1 , report its measured IC50.
23.5
